- assay info: inhibition of PEG-3 promoter activity – cell-based, HeLa, luciferase luminescence, primary screen (AID 588405)
- recorded conditions: HeLa PEG-Prom luciferase reporter, overnight, at 20 µM, hits give high values
In all, about 360,000 compounds went through this assay and about 6,200 (1.7%) were called active. The sample as a whole holds a higher share of actives than the screen did.
Recorded inhibition for the following compounds
measured endpoint: inhibition (%)

O=C(NCc1ccccc1)C(c1ccco1)N(C(=O)c1csnn1)c1ccccc1F (stereo unspecified)	5.02
CS(=O)(=O)c1cccc(-c2ccc3nncn3c2)c1	-2.9
CSc1n[nH]c(=S)n1N	12.2
Nc1ncnc2c1ncn2[C@@H]1O[C@H](C(=O)NS(=O)(=O)c2c(Cl)nc3sccn23)[C@@H](O)[C@H]1O	8.22
CCCc1nc(N2CCN(C)CC2)c2sc(=S)n(-c3ccccc3)c2n1	30.8
CCOc1c2ccc(C(=O)NCc3ccc4c(c3)OCO4)cc2nn1C	-10.3
Cc1cc(C(C)(C)C)cc(C)c1N	6.32
COc1ccc(NC(=O)C2(C)Cc3c(-c4cccc(NC(C)=O)c4)ccnc3O2)cc1 (stereo unspecified)	-10.2
COc1ccc(C(C)(O)c2nc(-c3cc(F)cc(F)c3)cs2)cc1 (stereo unspecified)	23.2
O=C(c1ccccc1)N1CCN(c2cc(-c3ccccc3)nc3cc(-c4cccc(Cl)c4)nn23)CC1	16.8
CN(C)C(=O)c1cccc(-c2cnc3sc(NCc4ccc5c(c4)OCO5)nn23)c1	50.3
C#Cc1cc(N2CCN(C(=O)c3ccoc3)CC2)n2nc(-c3cccc(Cl)c3)cc2n1	79.3
CC(OC(=O)/C=C/c1ccccc1)C(=O)NC1CCCCC1C (stereo unspecified)	6.61
CC1CCCCC1NC(=O)/C(C#N)=C/C=C/c1ccccc1[N+](=O)[O-] (stereo unspecified)	111
c1ccc(C[C@H]2CNCCN2CCC23CC4CC(CC(C4)C2)C3)cc1	96.8
CCc1nc2ccc(C(=O)Nc3ccc(OC)c(OC)c3)cn2c1N(C)C(=O)c1cccc(OC)c1	-9.49
c1ccc2c(CCN3CCNC[C@H]3Cc3cccc4ccccc34)cccc2c1	-8.29
COc1ccc(-c2cc(NC=O)c3ncc(-c4cc(OC)c(OC)c(OC)c4)n3c2)c(OC)c1	1.14
O=C(CSc1ncnc2scc(-c3ccccc3)c12)NCc1ccc2c(c1)OCO2	26.7
COc1ccc(-c2[nH]ncc2/C=N/NC(=O)c2cc(Br)ccc2O)c(OC)c1	5.43
CC(C)(C)c1ccc(Oc2ccc(N)cc2)cc1	76.7

---

Recorded inhibition for the following molecules
- assay info: inhibition of PEG-3 promoter activity – cell-based, HeLa, luciferase luminescence, primary screen (AID 588405)
- recorded conditions: HeLa PEG-Prom luciferase reporter, overnight, at 20 µM, hits give high values
Screen size: about 360,000 compounds; about 6,200 (1.7%) were called active. For the sample, actives were picked, then their nearest neighbours and some compounds at random.
measured endpoint: inhibition (%)

O=C(/C=C/c1ccc(Cl)c([N+](=O)[O-])c1)c1ccc(O)cc1	104
COCCSc1nnc(NC(=O)c2cc(OC)c(OC)cc2[N+](=O)[O-])s1	7.25
Cc1nc2c(OCC(=O)C(C)(C)C)cccn2c1N(C)Cc1cccs1	-4.66
CN(C)CC(O)COc1ccc(C(C)(C)c2ccc(OCC(O)CN(C)C)cc2)cc1 (stereo not given)	77.5
CC(=O)Nc1ccc(C=CC(=O)c2ccc([N+](=O)[O-])cc2)cc1	4.26
CC(CC(=O)O)C(=O)c1ccc(Cl)c([N+](=O)[O-])c1 (stereo not given)	1.7
CCOc1ccc(-n2c(SCC(=O)NC3CCS(=O)(=O)C3)nnc2-c2cccnc2)cc1 (stereo not given)	-3.16
Cc1nc2ccccc2nc1CC(O)(c1ccccc1)c1ccccc1	-1.32
COc1cccc(CNCCc2c[nH]c3ccccc23)c1OCc1ccccc1F	92.7
O=C(Nc1cccnc1)c1ccc(Cl)cc1[N+](=O)[O-]	-0.43
